Ref: patent US10562902B2

target of assay: IRAK4 kinase (Homo sapiens (Human))
Sequence (Q9NWZ3 whole entry): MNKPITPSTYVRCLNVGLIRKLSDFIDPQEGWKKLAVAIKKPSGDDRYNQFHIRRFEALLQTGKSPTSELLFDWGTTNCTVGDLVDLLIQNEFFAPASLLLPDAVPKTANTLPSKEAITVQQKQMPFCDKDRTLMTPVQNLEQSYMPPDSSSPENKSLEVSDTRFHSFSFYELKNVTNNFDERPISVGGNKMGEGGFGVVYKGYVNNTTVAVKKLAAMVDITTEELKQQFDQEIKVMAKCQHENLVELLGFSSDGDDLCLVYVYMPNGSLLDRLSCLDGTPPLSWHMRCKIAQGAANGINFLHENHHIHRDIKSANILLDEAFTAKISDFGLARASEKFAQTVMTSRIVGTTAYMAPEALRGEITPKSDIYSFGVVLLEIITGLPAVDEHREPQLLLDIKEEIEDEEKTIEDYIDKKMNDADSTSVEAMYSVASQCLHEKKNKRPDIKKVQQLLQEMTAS
assay info: IRAK4 kinase activity inhibition assay
Type: biochemical
experimental parameters: ADP-Glo kinase assay, 10 μM ATP, MBP substrate
measurement kind: IC50

{"chemical string": "Cc1cc(Nc2nc(NC(C)C)c3c(ccn3-c3cnn(C)c3)n2)sn1", "measurement kind": "IC50", "measured value": "≤ 100 nM"}
{"chemical string": "CNC(=O)c1cc(Nc2nc(O[C@H]3CCOC3)c3c(ccn3-c3cnn(C)c3)n2)sn1", "measurement kind": "IC50", "measured value": "≤ 100 nM"}
{"chemical string": "Cn1cc(-n2ccc3nc(Nc4ccc5ncsc5c4)nc(O[C@H]4CCOC4)c32)cn1", "measurement kind": "IC50", "measured value": "100 to 1000 nM"}
{"chemical string": "CNC(=O)CCNc1nc(Nc2cc(C)ns2)nc2ccn(-c3cnn(C)c3)c12", "measurement kind": "IC50", "measured value": "100 to 1000 nM"}
{"chemical string": "Cc1cc(Nc2nc(NC3CCC3)c3c(ccn3-c3cnn(C)c3)n2)sn1", "measurement kind": "IC50", "measured value": "100 to 1000 nM"}
{"chemical string": "Cn1cc(-n2ccc3nc(Nc4ccc[nH]4)nc(O[C@H]4CCOC4)c32)cn1", "measurement kind": "IC50", "measured value": "≤ 100 nM"}
{"chemical string": "Cc1cc(Nc2nc(NC(C)C)c3c(ccn3-c3cccnc3)n2)sn1", "measurement kind": "IC50", "measured value": "100 to 1000 nM"}
{"chemical string": "Cn1cc(-n2ccc3nc(Nc4cc(C(=O)N[C@H]5CCOC5)cs4)nc(O[C@H]4CCOC4)c32)cn1", "measurement kind": "IC50", "measured value": "≤ 100 nM"}

* * *

pIC50: −log10 of the molar value.
Recorded pIC50 values (IRAK4 kinase (Homo sapiens (Human))) are given below.
measurement kind: pIC50

{"compound": "Cn1cc(-n2ccc3nc(Nc4cc(C(=O)N[C@@H]5CCOC5)cs4)nc(O[C@H]4CCOC4)c32)cn1", "measured value": "≥ 7.00"}
{"compound": "Cc1cc(Nc2nc(NC3CC(O)C3)c3c(ccn3-c3cnn(C)c3)n2)sn1 (stereo not shown)", "measured value": "≥ 7.00"}
{"compound": "CNC(=O)c1csc(Nc2nc(O[C@H]3CCOC3)c3c(ccn3-c3cnn(C)c3)n2)c1", "measured value": "≥ 7.00"}
{"compound": "CNC(=O)c1cc(Nc2nc(O[C@H]3CCOC3)c3c(ccn3-c3cnn(C)c3)n2)cs1", "measured value": "≥ 7.00"}
{"compound": "Cc1cc(Nc2nc(OC3CCOCC3)c3c(ccn3-c3cccnc3)n2)sn1", "measured value": "6.00 to 7.00"}
{"compound": "Cn1cc(-n2ccc3nc(Nc4cccnc4)nc(O[C@H]4CCOC4)c32)cn1", "measured value": "5.00 to 6.00"}
{"compound": "COc1cccc(-n2ccc3nc(Nc4cc(C)ns4)nc(OC4CCOCC4)c32)c1", "measured value": "5.00 to 6.00"}
{"compound": "CNC(=O)c1ccc(Nc2nc(O[C@H]3CCOC3)c3c(ccn3-c3cnn(C)c3)n2)s1", "measured value": "6.00 to 7.00"}
{"compound": "Cc1cc(Nc2nc(N[C@H]3CCOC3)c3c(ccn3-c3cnn(C)c3)n2)sn1", "measured value": "6.00 to 7.00"}
{"compound": "Cc1cc(Nc2nc(O[C@H]3CCOC3)c3c(ccn3-c3cnn(C)c3)n2)cs1", "measured value": "6.00 to 7.00"}
